Data provenance: ChEMBL document CHEMBL5634161

- PROTOCOL SUMMARY: Stability in human liver microsomes assessed as compound remaining at […] preincubated for 5 mins followed by NADPH addition and measured after 45 mins by LC-MS/MS analysis
- Format: ADME, Microsome
- EXPERIMENTAL PARAMETERS: time 50 min, read-out: Stability
MEASURED METRIC: remaining at 0.75 h (%)

>>> observed("COc1nc(-c2ccc(NC(=O)Nc3ccc(C(=O)NCCCCCC(=O)Nc4ccccc4N)cc3)cc2)nc(N2CCOCC2)n1")
35.8

---

- PROTOCOL SUMMARY: AUC (0 to t) in ICR mouse at 1 mg/kg, iv measured after 24 hrs by LC-MS/MS analysis
- Assay type: ADME, organism-based
- EXPERIMENTAL PARAMETERS: in vivo
MEASURED METRIC: AUC(0-t) at 24 h (ng·h/mL)

>>> observed("COc1nc(-c2ccc(NC(=O)Nc3ccc(C(=O)NCCCCCC(=O)Nc4ccccc4N)cc3)cc2)nc(N2CCOCC2)n1")
2700
